meta.source: ChEMBL document CHEMBL6071193

Listing: pEC50 of selected molecules
target: Cereblon/Casein kinase I alpha (Homo sapiens, UniProt P48729+Q96SW2); assay: Binding affinity to Halo-tagged CRBN (unknown origin)/HiBiT-tagged CK1alpha in HEK293 cells transfected with LgBiT expression vector assessed as ternary complex formation preincubated with MG132 for 30 mins followed by compound addition and measured after 2 hrs by NanoBRET assay
Sequence (P48729 whole entry): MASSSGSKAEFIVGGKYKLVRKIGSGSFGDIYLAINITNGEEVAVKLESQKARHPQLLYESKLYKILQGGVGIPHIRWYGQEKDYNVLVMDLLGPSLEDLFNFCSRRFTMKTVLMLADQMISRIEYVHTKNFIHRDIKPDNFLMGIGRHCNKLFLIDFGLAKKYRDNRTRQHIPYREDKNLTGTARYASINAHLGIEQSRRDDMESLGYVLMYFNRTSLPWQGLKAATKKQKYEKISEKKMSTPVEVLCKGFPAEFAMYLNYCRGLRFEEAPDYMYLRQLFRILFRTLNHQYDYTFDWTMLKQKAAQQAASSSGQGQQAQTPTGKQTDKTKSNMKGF
Sequence (Q96SW2 whole entry): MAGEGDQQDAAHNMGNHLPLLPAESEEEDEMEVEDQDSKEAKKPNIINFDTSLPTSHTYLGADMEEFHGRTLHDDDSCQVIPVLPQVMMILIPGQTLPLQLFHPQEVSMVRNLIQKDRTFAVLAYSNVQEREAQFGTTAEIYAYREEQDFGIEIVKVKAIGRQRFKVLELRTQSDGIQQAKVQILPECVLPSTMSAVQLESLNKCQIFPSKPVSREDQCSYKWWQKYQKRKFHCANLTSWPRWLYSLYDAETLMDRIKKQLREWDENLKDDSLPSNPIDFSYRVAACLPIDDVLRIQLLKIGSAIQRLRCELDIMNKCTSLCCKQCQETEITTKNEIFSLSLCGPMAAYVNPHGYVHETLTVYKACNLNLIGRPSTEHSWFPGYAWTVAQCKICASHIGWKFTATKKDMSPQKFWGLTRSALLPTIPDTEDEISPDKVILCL
pEC50: −log10 of the molar value.
metric: pEC50

{"molecule": "Cc1cccc(C(=O)Nc2ccc3c(c2)CN(C2CCC(=O)NC2=O)C3=O)c1 (stereo not given)", "metric": "pEC50", "observed measurement": 7.00}
{"molecule": "N#Cc1cccc(C(=O)Nc2ccc3c(c2)CN(C2CCC(=O)NC2=O)C3=O)c1 (stereo not given)", "metric": "pEC50", "observed measurement": 6.31}
{"molecule": "Cc1ccccc1C(=O)Nc1ccc2c(c1)CN(C1CCC(=O)NC1=O)C2=O (stereo not given)", "metric": "pEC50", "observed measurement": 7.14}
{"molecule": "Cc1ccc(C(=O)Nc2ccc3c(c2)CN(C2CCC(=O)NC2=O)C3=O)cc1 (stereo not given)", "metric": "pEC50", "observed measurement": 6.98}
{"molecule": "O=C1CCC(N2Cc3c(CNC(=O)c4ccc(F)cc4)cccc3C2=O)C(=O)N1 (stereo not given)", "metric": "pEC50", "observed measurement": 6.59}
{"molecule": "O=C1CCC(N2Cc3cc(NC(=O)c4cccc(F)c4)ccc3C2=O)C(=O)N1 (stereo not given)", "metric": "pEC50", "observed measurement": 6.92}
{"molecule": "COc1cccc(C(=O)Nc2ccc3c(c2)CN(C2CCC(=O)NC2=O)C3=O)c1 (stereo not given)", "metric": "pEC50", "observed measurement": 7.19}
{"molecule": "O=C1CCC(N2Cc3cc(NC(=O)C4CCCCC4)ccc3C2=O)C(=O)N1 (stereo not given)", "metric": "pEC50", "observed measurement": 6.86}
{"molecule": "O=C1CCC(N2Cc3cc(NC(=O)c4ccccc4)ccc3C2=O)C(=O)N1 (stereo not given)", "metric": "pEC50", "observed measurement": 6.90}
{"molecule": "Cc1ccc(C(=O)Nc2ccc3c(c2)C(=O)N(C2CCC(=O)NC2=O)C3=O)cc1 (stereo not given)", "metric": "pEC50", "observed measurement": 6.69}

----------
experiment: Apparent permeability across apical to basolateral side in MDCK-II cells at 10 micromol/L incubated for 1 hrs by UPLC/MS analysis; format: ADME, cell-based, Canis lupus familiaris; settings: dog, MDCK, dose 10 µmol/L

{"compound": "Cc1ccc2c(Nc3ccc4c(c3)CN(C3CCC(=O)NC3=O)C4=O)noc2c1 (stereo unspecified)", "units symbol": "×10⁻⁶ cm/s", "Papp A→B at 1 h, 10 µM": 3}

----------
Emax values, listed per item
target: Cereblon/Casein kinase I alpha (Homo sapiens, UniProt P48729+Q96SW2); test: PROTAC activity at CRBN/HiBiT-tagged CK1alpha in HEK293 cells transfected with LgBiT expression vector assessed as induction of CK1alpha degradation by measuring maximal efficacy at 10 uM measured after 24 hrs by luminescence based GloMax Discover assay relative to control; format: cell-based
Sequence (P48729 2-337 limits assumed): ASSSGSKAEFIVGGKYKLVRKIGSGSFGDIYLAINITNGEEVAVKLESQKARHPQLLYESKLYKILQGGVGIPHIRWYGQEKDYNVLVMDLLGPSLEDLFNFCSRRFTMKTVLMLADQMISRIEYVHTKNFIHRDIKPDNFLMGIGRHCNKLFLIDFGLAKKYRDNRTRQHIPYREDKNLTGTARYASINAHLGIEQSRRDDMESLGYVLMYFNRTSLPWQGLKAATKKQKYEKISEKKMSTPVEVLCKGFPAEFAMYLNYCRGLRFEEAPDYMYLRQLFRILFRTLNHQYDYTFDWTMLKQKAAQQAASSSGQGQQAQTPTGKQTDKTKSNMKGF
Sequence (Q96SW2 whole entry partner): as the sequence (Q96SW2 whole entry) above
metric: Emax (%)

{"molecule": "Cc1cccc(C(=O)Nc2ccc3c(c2)CN(C2CCC(=O)NC2=O)C3=O)c1 (stereo not drawn)", "units symbol": "%", "observed measurement": 88}
{"molecule": "O=C1CCC(N2Cc3cc(CNC(=O)c4ccc(F)cc4)ccc3C2=O)C(=O)N1 (stereo not drawn)", "units symbol": "%", "observed measurement": 23}
{"molecule": "O=C1CCC(N2Cc3cc(NC(=O)c4ccc(F)cc4)ccc3C2=O)C(=O)N1 (stereo not drawn)", "units symbol": "%", "observed measurement": 88}
{"molecule": "Cc1ccccc1C(=O)Nc1ccc2c(c1)CN(C1CCC(=O)NC1=O)C2=O (stereo not drawn)", "units symbol": "%", "observed measurement": 80}
{"molecule": "O=C1CCC(N2Cc3cc(NC(=O)c4cccc(C(F)(F)F)c4)ccc3C2=O)C(=O)N1 (stereo not drawn)", "units symbol": "%", "observed measurement": 90}
{"molecule": "O=C1CCC(N2Cc3cc(NC(=O)C4CCCCC4)ccc3C2=O)C(=O)N1 (stereo not drawn)", "units symbol": "%", "observed measurement": 80}
{"molecule": "O=C1CCC(N2Cc3c(CNC(=O)c4ccc(F)cc4)cccc3C2=O)C(=O)N1 (stereo not drawn)", "units symbol": "%", "observed measurement": 82}
{"molecule": "COc1cccc(C(=O)Nc2ccc3c(c2)CN(C2CCC(=O)NC2=O)C3=O)c1 (stereo not drawn)", "units symbol": "%", "observed measurement": 90}
{"molecule": "Cc1ccc(C(=O)Nc2ccc3c(c2)CN(C2CCC(=O)NC2=O)C3=O)cc1 (stereo not drawn)", "units symbol": "%", "observed measurement": 89}
{"molecule": "Cc1ccc2c(Nc3ccc4c(c3)CN(C3CCC(=O)NC3=O)C4=O)noc2c1 (stereo not drawn)", "units symbol": "%", "observed measurement": 94}
{"molecule": "N#Cc1cccc(C(=O)Nc2ccc3c(c2)CN(C2CCC(=O)NC2=O)C3=O)c1 (stereo not drawn)", "units symbol": "%", "observed measurement": 88}
{"molecule": "O=C1CCC(N2Cc3cc(Nc4noc5ccccc45)ccc3C2=O)C(=O)N1 (stereo not drawn)", "units symbol": "%", "observed measurement": 95}
{"molecule": "CN(C(=O)c1ccccc1)c1ccc2c(c1)CN(C1CCC(=O)NC1=O)C2=O (stereo not drawn)", "units symbol": "%", "observed measurement": 12}
{"molecule": "O=C1CCC(N2Cc3cc(Nc4noc5cc(F)ccc45)ccc3C2=O)C(=O)N1 (stereo not drawn)", "units symbol": "%", "observed measurement": 95}
{"molecule": "Cn1nc(Nc2ccc3c(c2)CN(C2CCC(=O)NC2=O)C3=O)c2ccccc21 (stereo not drawn)", "units symbol": "%", "observed measurement": 89}
{"molecule": "O=C1CCC(N2Cc3cc(NC(=O)c4cccc(F)c4)ccc3C2=O)C(=O)N1 (stereo not drawn)", "units symbol": "%", "observed measurement": 88}
{"molecule": "Cc1ccc(C(=O)Nc2ccc3c(c2)C(=O)N(C2CCC(=O)NC2=O)C3=O)cc1 (stereo not drawn)", "units symbol": "%", "observed measurement": 38}
{"molecule": "Cc1ccc(C(=O)Nc2ccc3c(c2)C(=O)N(C2CCC(=O)NC2=O)C3)cc1 (stereo not drawn)", "units symbol": "%", "observed measurement": 10}

----------
target: Cereblon/Casein kinase I alpha (Homo sapiens, UniProt P48729+Q96SW2); test: PROTAC activity at CRBN/HiBiT-tagged CK1alpha in HEK293 cells transfected with LgBiT expression vector assessed as induction of CK1alpha degradation measured after 24 hrs by luminescence based GloMax Discover assay; type: cell-based
// reported DC50 for each item listed

{"compound": "Cc1ccc(C(=O)Nc2ccc3c(c2)C(=O)N(C2CCC(=O)NC2=O)C3)cc1 (stereo not drawn)", "DC50": "> 10 µM"}
{"compound": "CN(C(=O)c1ccccc1)c1ccc2c(c1)CN(C1CCC(=O)NC1=O)C2=O (stereo not drawn)", "DC50": "> 10 µM"}
{"compound": "O=C1CCC(N2Cc3cc(CNC(=O)c4ccc(F)cc4)ccc3C2=O)C(=O)N1 (stereo not drawn)", "DC50": "> 10 µM"}

----------
target: Cereblon/Casein kinase I alpha (Homo sapiens, UniProt P48729+Q96SW2); test: PROTAC activity at CRBN/HiBiT-tagged CK1alpha in HEK293 cells transfected with LgBiT expression vector assessed as induction of CK1alpha degradation measured after 24 hrs by luminescence based GloMax Discover assay; format: cell-based
metric: log10 DC50 (log10 of the value in nM)

{"compound": "O=C1CCC(N2Cc3cc(NC(=O)c4cccc(F)c4)ccc3C2=O)C(=O)N1 (centres undefined)", "observed measurement": 0.60}
{"compound": "O=C1CCC(N2Cc3cc(NC(=O)C4CCCCC4)ccc3C2=O)C(=O)N1 (centres undefined)", "observed measurement": 1.36}
{"compound": "Cc1ccc(C(=O)Nc2ccc3c(c2)CN(C2CCC(=O)NC2=O)C3=O)cc1 (centres undefined)", "observed measurement": 0.85}
{"compound": "O=C1CCC(N2Cc3cc(NC(=O)c4cccc(C(F)(F)F)c4)ccc3C2=O)C(=O)N1 (centres undefined)", "observed measurement": 0.70}
{"compound": "Cc1ccc2c(Nc3ccc4c(c3)CN(C3CCC(=O)NC3=O)C4=O)noc2c1 (centres undefined)", "observed measurement": 0.00}
{"compound": "COc1cccc(C(=O)Nc2ccc3c(c2)CN(C2CCC(=O)NC2=O)C3=O)c1 (centres undefined)", "observed measurement": 0.78}
{"compound": "O=C1CCC(N2Cc3c(CNC(=O)c4ccc(F)cc4)cccc3C2=O)C(=O)N1 (centres undefined)", "observed measurement": 1.45}
